Recorded Ki values (5-hydroxytryptamine receptor 7 (Homo sapiens)) are given below.
readout_kind: Ki (nM)

1) CN1CCC[C@@H]1Cc1c[nH]c2ccc(NS(=O)(=O)c3cccc(Cl)c3)cc12: 24
2) CN1CCC[C@@H]1Cc1c[nH]c2ccc(NS(=O)(=O)c3ccccc3Cl)cc12: 74

###

The entries below come with measured pEC50 values attached.
# measurement_target: 5-hydroxytryptamine receptor 6 (Homo sapiens, UniProt P50406)
# Sequence (P50406 whole entry): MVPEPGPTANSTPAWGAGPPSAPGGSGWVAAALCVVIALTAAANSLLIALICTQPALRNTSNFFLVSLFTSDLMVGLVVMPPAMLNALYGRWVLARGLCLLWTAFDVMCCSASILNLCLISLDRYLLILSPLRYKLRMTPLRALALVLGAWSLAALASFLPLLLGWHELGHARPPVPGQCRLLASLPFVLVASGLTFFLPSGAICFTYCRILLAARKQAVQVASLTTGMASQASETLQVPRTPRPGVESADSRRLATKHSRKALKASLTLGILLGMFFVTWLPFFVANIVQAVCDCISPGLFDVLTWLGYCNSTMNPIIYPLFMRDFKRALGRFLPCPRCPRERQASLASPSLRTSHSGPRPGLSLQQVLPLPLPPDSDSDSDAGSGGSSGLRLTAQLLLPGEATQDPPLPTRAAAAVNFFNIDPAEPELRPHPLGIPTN
# test_summary: Effective agonist concentration in cAMP release assay in HeLa cells expressing human 5-hydroxytryptamine 6 receptor
pEC50: −log10 of the molar value.
readout_kind: pEC50

1) Cc1noc(C)c1S(=O)(=O)Nc1ccc2[nH]cc(C[C@H]3CCCN3C)c2c1: 9.10
2) O=S(=O)(Nc1ccc2[nH]cc(C[C@H]3CCCN3)c2c1)c1cccc(Cl)c1: 9.00
3) CN1CCC[C@@H]1Cc1c[nH]c2ccc(NS(=O)(=O)c3cccc(C(F)(F)F)c3)cc12: 8.49
4) O=S(=O)(Nc1ccc2[nH]cc(C[C@H]3CCCN3)c2c1)c1ccccc1: 8.85
5) CN1CCC[C@@H]1Cc1c[nH]c2ccc(NS(=O)(=O)c3ccc(OC(F)(F)F)cc3)cc12: 8.54
6) CN1CCC[C@H]1Cc1c[nH]c2ccc(NS(=O)(=O)c3ccc(OC(F)(F)F)cc3)cc12: 6.74
7) CN1CCC[C@@H]1Cc1c[nH]c2ccc(NS(=O)(=O)c3cccc(Cl)c3)cc12: 8.80
8) O=S(=O)(Nc1ccc2[nH]cc(C[C@H]3CCCN3)c2c1)c1ccc(OC(F)(F)F)cc1: 8.38
9) O=S(=O)(Nc1ccc2[nH]cc(C[C@H]3CCCN3)c2c1)c1ccc(F)cc1F: 8.28
10) COc1ccc(S(=O)(=O)Nc2ccc3[nH]cc(C[C@H]4CCCN4C)c3c2)cc1: 8.66

###

# measurement_target: UniProt P50406
# test_summary: Maximum percentage agonism of cAMP production in HeLa cells expressing human 5-hydroxytryptamine 6 receptor
# Type: functional, cell-based
The entries below come with measured Emax values attached.
readout_kind: Emax (%)

1) CN1CCC[C@@H]1Cc1c[nH]c2ccc(NS(=O)(=O)c3ccc(I)cc3)cc12: 72
2) COc1ccc(S(=O)(=O)Nc2ccc3[nH]cc(C[C@H]4CCCN4C)c3c2)cc1: 83
3) CN1CCC[C@@H]1Cc1c[nH]c2ccc(NS(=O)(=O)c3ccccc3Cl)cc12: 100
4) Cc1ccc(S(=O)(=O)Nc2ccc3[nH]cc(C[C@H]4CCCN4C)c3c2)cc1: 79
5) CN1CCC[C@@H]1Cc1c[nH]c2ccc(NS(=O)(=O)c3ccccc3F)cc12: 91
6) O=S(=O)(Nc1ccc2[nH]cc(C[C@H]3CCCN3)c2c1)c1ccc(F)cc1F: 78
7) O=S(=O)(Nc1ccc2[nH]cc(C[C@H]3CCCN3)c2c1)c1ccc(Cl)cc1: 99
8) O=S(=O)(Nc1ccc2[nH]cc(C[C@H]3CCCN3)c2c1)c1ccccc1Cl: 100

###

pKi: −log10 of the molar value.
Recorded pKi values (5-hydroxytryptamine receptor 6 (Homo sapiens)) are given below.
readout_kind: pKi

1. CN1CCC[C@H]1Cc1c[nH]c2ccc(NS(=O)(=O)c3ccc(Br)cc3)cc12: 8.05
2. CN1CCC[C@H]1Cc1c[nH]c2ccc(NS(=O)(=O)c3ccc(C(F)(F)F)cc3)cc12: 8.00
3. CN1CCC[C@H]1Cc1c[nH]c2ccc(NS(=O)(=O)c3ccc(OC(F)(F)F)cc3)cc12: 8.10
